assay.comment: Microsomal stability in dog liver microsome assessed as compound remaining measured upto 45 min in presence of NADPH by LC-MS analysis
Format: ADME, Canis lupus familiaris
reported.conditions: liver microsomes, read-out: Stability
measured.attribute: remaining at 0.75 h (%)

>>> reading("CCc1cnc(N2CCC(COc3ccc(C4=CC[C@H](C(=O)N5CCC[C@@H]5CO)CC4)cc3)CC2)nc1")
62.4

----------
assay.comment: Half-life in Sprague-Dawley rat at 30 mg/kg, po measured upto 48 hrs by LC-MS/MS analysis
Assay type: ADME, organism-based
reported.conditions: in vivo
measured.attribute: half-life

>>> reading("CCc1cnc(N2CCC(COc3ccc(C4=CC[C@H](C(=O)N5CCC[C@@H]5CO)CC4)cc3)CC2)nc1")
"324 min"

Values from ChEMBL document CHEMBL6153088
